As shown below, each of these compounds has a reported melting point value.

Cc1cccc2c(O)c(C(=O)O)cnc12 :: 281 to 283 °C
Nc1nc(-c2ccc([N+](=O)[O-])cc2)no1 :: 294 to 296 °C

Which melting point value belongs to "COc1ccc(-c2ccc(C(=O)O)c(F)c2)cc1" ?
201 to 203 °C

----------
The following compounds are listed with their measured melting point values.

Sample answers from the record:
Nc1ccc(S(=O)(=O)Nc2ccc(F)c(Cl)c2)cc1 :: 173 to 175 °C
O=C(O)c1cncn1-c1ccccc1 :: 208 to 215 °C
O=[N+]([O-])c1cc(Cl)cnc1Br :: 75 to 77 °C
Cc1ccc(C(C)C)cc1OC(C)C(=O)O (centres undefined) :: 80 to 82 °C
Cc1oc(-c2ccsc2)nc1CCl :: 101 to 103 °C

I would be grateful if you could share the reported melting point for "Cc1c(N2CCOC2=O)cccc1[N+](=O)[O-]" .
67 to 69 °C

Bench note: what melting point did "N#Cc1cnc2ccc(Cl)cc2c1Cl" show?
129 to 131 °C

GET /values?readout=melting point&item= "CCCn1c(S)nnc1-c1ccncc1"
258 to 260 °C

melting point lookup needed for "Cc1ccc2sc(C3CCNCC3)nc2c1" , thanks.
111 to 113 °C

So what's the measured melting point for this one? O=C(CCl)NC1C2CC3CC(C2)CC1C3 (centres undefined)
118 to 122 °C

----------
MEASURED_QUANTITY: melting point

Use these answered entries as a reference point.
CC(C)(C)OC(=O)N1CCC(NCC(F)(F)F)CC1 :: 51 to 53 °C
CNC(=O)c1cccc(N)c1 :: 122 to 124 °C
O=C(CCl)N1CCN(S(=O)(=O)c2ccc(Cl)s2)CC1 :: 240 to 245 °C

Find the recorded melting point belonging to "O=C(O)CCCn1cc(Br)cn1" and report it.
94 to 96 °C

Using the record for N#Cc1ccc(C(O)C(=O)O)cc1 (stereo not drawn) , report its melting point.
89 to 91 °C

Report melting point for "N#Cc1ccc(C(=O)CC(=O)C(F)(F)F)cc1" please.
128 to 130 °C

Which melting point is reported for this molecule? "N#Cc1cccnc1OCC(F)(F)F"
40 to 42 °C

I'd like to know its melting point. The molecule in question is "CN(Cc1ccccc1N)C(=O)c1cc2ccccc2o1"
109 to 111 °C

----------
MEASURED_QUANTITY: melting point

Study these solved cases before continuing.
O=C(O)c1cc(F)c(Br)c(S(=O)(=O)Cl)c1 :: 213 to 215 °C
N#Cc1nc(N)[nH]c1C#N :: 270 to 272 °C
Cc1c(C(=O)O)cnn1-c1cccc(Br)c1 :: 169 to 171 °C
Cc1cc(C)c2c(Cl)c(C(=O)O)sc2c1 :: 286 to 288 °C
Cc1ccc(S(=O)(=O)N2CCOCC2)cc1N :: 127 to 135 °C

Query (molecule): "NNC(=O)CC1CCCC1" ; field requested: melting point
82 to 84 °C

Which melting point reading was recorded for the molecule "O=C1CCCS(=O)(=O)C1" ?
141 to 143 °C

Quick one: melting point of "CS(=O)(=O)OCC1CCOCC1" ?
61 to 63 °C
